Molecular target: GABARAPL2 (Homo sapiens, UniProt P60520)
Sequence (P60520 whole entry): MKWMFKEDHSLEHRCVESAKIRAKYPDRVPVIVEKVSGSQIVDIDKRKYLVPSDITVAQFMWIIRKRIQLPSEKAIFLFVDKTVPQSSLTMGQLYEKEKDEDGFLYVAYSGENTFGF
Details: residue E17; GABARAPL2:ligand molar ratio 1:2
# CSP annotations
Please reply with the bare figure in ppm and do not write the unit itself.

Worked cases, answers included:
O=C1Nc2ccc(Br)cc2C1=Cc1cc(O)c(O)c(Br)c1	0.011
Cc1ccc(C(=O)N(CCCN)[C@@H](c2nc3cc(Cl)ccc3c(=O)n2Cc2ccccc2)C(C)C)cc1	0.000762
O=C1Nc2ccc(I)cc2C1=Cc1cc(Br)c(O)c(Br)c1	0.081

Next item in the queue.
[ask] Entry O=c1cc(-c2ccccc2)c2c(O)cc(O)cc2o1 has what CSP?
[reply] 0.006
